- protocol-details: solvent given as SMILES
- condition-description: in CS(C)=O
Threshold 400 nm. absorption maximum below it: yes (1). absorption maximum at it or above: no (0).

Example results:
CN(C)c1ccc(-c2nc3c(c4c2-c2ccc(C#N)cc2CC4)-c2ccc(C#N)cc2CC3)cc1; yes (1)
CC(C)[Si]1(C(C)C)c2cc(C=C(C#N)C#N)ccc2-c2ccc(N(C)C)cc21; no (0)
C(=C\c1ccnc2ccccc12)/c1ccc(/C=C/c2ccnc3ccccc23)cc1; yes (1)
Fc1ccc(-c2nc3n(c2-c2ccncc2)CCS3)cc1; yes (1)
COc1cc(OC)cc(C2=C3C(C)=C(I)C(/C=C/c4c[nH]c5ccc([N+](=O)[O-])cc45)=[N+]3[B-](F)(F)n3c(/C=C/c4c[nH]c5ccc([N+](=O)[O-])cc45)c(I)c(C)c32)c1; no (0)
Cc1c2ccncc2c(C)c2c1[nH]c1ccccc12; yes (1)

Input line: For this compound, is absorption maximum lower than 400 nm? CCN(CC)c1cc(NC(C)=O)c(/N=N/c2cc3c(=O)[nH][nH]c(=O)c3cc2[N+](=O)[O-])cc1OC
Output line: no (0)

###

- protocol-details: solvent given as SMILES
- condition-description: in ClCCl
Consider the following compounds and their measured absorption maximum readings.
Give the value in nm but do not write nm after it.

Input line: Dear colleague, I am looking for the recorded absorption maximum of the following compound: CC(C)(C)c1ccc(C#Cc2cc3c(C#Cc4ccc(C(C)(C)C)cc4)c(C#Cc4ccc(C(C)(C)C)cc4)c4cc(C#Cc5ccc(C(C)(C)C)cc5)cc5c(C#Cc6ccc(C(C)(C)C)cc6)c(C#Cc6ccc(C(C)(C)C)cc6)c(c2)c3c45)cc1
Output line: 414

Input line: Next compound: O=C1c2ccccc2-c2nc3ccccc3n21
Output line: 340

Input line: Next compound: CCN(CC)c1ccc([N+]2=Cc3ccc4c5c(ccc4c3O[B-]2(c2c(F)c(F)c(F)c(F)c2F)c2c(F)c(F)c(F)c(F)c2F)C=[N+](c2ccc(N(CC)CC)cc2)[B-](c2c(F)c(F)c(F)c(F)c2F)(c2c(F)c(F)c(F)c(F)c2F)O5)cc1
Output line: 589

###

- protocol-details: solvent given as SMILES
- condition-description: in C1COCCO1
measured-property: absorption maximum (nm)
Give the value in nm but do not write nm after it.

Take a look at these entries with their results.
COc1cc(N(c2ccccc2)c2ccccc2)ccc1C=C(C#N)C#N; 436
O=C1OC(c2ccccc2)=C/C1=C\c1ccc([N+](=O)[O-])cc1; 416
CN(C)c1ccc2nc(/C=C/c3ccccc3)c(=O)oc2c1; 453

Input line: Dear colleague, I am looking for the recorded absorption maximum of the following compound: N#C[Se]CCCCCOc1ccc2ccc(=O)oc2c1
Output line: 319

Input line: Next compound: CCCCCN(c1ccccc1)c1ccc2c(c1)C(CC)(CC)c1cc(/C=C/c3ccc(/C=C(\C#N)C(=O)O)s3)ccc1-2
Output line: 464

Input line: Next compound: c1ccc(-c2nc(-c3ccc(-c4ccc(-n5c6ccccc6c6ccccc65)cc4)cn3)oc2-c2ccccc2)cc1
Output line: 326

###

Consider the following compounds and their measured absorption maximum readings.
- protocol-details: solvent given as SMILES
- condition-description: in CCOC(C)=O
Give the value in nm but do not write nm after it.

Take a look at these entries with their results.
CC1=C(C(C)(C)C)C(C)=[N+]2C1=C(C)c1c(C)c(C(C)(C)C)c(C)n1[B-]2(F)F; 523.2
CCCCCCCCC1(CCCCCCCC)c2cc(C#Cc3ccc(N(c4ccccc4)c4ccccc4)cc3)ccc2-c2ccc(C=O)cc21; 376
O=C(O)c1ccccc1Nc1ccccc1; 356
Cc1ccc(OCc2cc(=O)oc3c2ccc2ccccc23)cc1; 351
O=[N+]([O-])c1ccc(F)cc1C1CC(c2cccc3ccccc23)=NN1c1ccccc1 (stereo not given); 371
COc1ccc2c(=O)c3c([nH]c2c1)-c1ccccc1NC3(C)C; 395
CN(C)c1ccc(-c2nc3c(c4c2-c2ccc(C#N)cc2CC4)-c2ccc(C#N)cc2CC3)cc1; 333
CCOC(=O)/C(C#N)=C/c1cc2c3ccccc3n(C)c2cc1OC; 406

Input line: Dear colleague, I am looking for the recorded absorption maximum of the following compound: Cc1ccccc1/C(C#N)=C/c1ccc(N(C)C)cc1
Output line: 373

Input line: Next compound: COc1ccc(-c2nc3c(c4c2-c2ccccc2CC4)-c2ccccc2CC3)cc1
Output line: 310

Input line: Next compound: CCN1CCN(c2ccc(/N=N/c3ccc(C(=O)OC)cc3)cc2)CC1
Output line: 419

Input line: Next compound: CCn1c2ccccc2c2cc(-c3cc(-c4ccc5c(c4)c4ccccc4n5CC)nc(S(C)(=O)=O)n3)ccc21
Output line: 378

Input line: Next compound: CCN(CC)c1ccc2cc(-c3cn4ccccc4n3)c(=O)oc2c1
Output line: 407

Input line: Next compound: O=Cc1ccc(N(c2ccc(C=O)cc2)c2ccc(-c3ccc4c(c3)C(=O)c3ccccc3C4=O)cc2)cc1
Output line: 371

Input line: Next compound: CC(=O)Nc1ccc2c3cccc4cccc(c5cccc1c52)c43
Output line: 451

Input line: Next compound: COC(=O)C[C@H](Cc1c[nH]c2ccccc12)NC(=O)[C@H](CC(=O)N[C@@H](CC1=CCc2ccccc21)C(=O)OC)NC(=O)[C@H](Cc1c[nH]c2ccccc12)NC(=O)OC(C)(C)C
Output line: 280

Input line: Next compound: c1ccc(N2c3ccc4ccccc4c3-c3c4ccccc4nc[n+]3[B-]2(c2ccccc2)c2ccccc2)cc1
Output line: 532

Input line: Next compound: COC(=O)C[C@H](NC(=O)[C@H](Cc1c[nH]c2ccccc12)NC(=O)OC(C)(C)C)C(=O)OC
Output line: 280

Input line: Next compound: COc1cc2c(cc1/C=C(\C#N)c1nc3ccccc3s1)c1ccccc1n2C
Output line: 430

Input line: Next compound: O=C1c2ccccc2-c2ccc(Nc3nc(Cl)nc(Cl)n3)c3cccc1c23
Output line: 403.06

###

- protocol-details: solvent given as SMILES
- condition-description: in ClC(Cl)Cl
measured-property: absorption maximum (nm)
Give the value in nm but do not write nm after it.

Take a look at these entries with their results.
CCCCN1C(=O)C(=CC=C2N(CCCC)c3ccccc3N2CCCC)C(=O)N(CCCC)C1=S; 461
CO[Si](c1c2ccccc2cc2ccccc12)(c1c2ccccc2cc2ccccc12)c1c2ccccc2cc2ccccc12; 401
COc1ccc(C(=O)/C=C/c2ccc(N(C)C)cc2)cc1OC; 417
Cc1ccc(C(=O)NN2C3=C(CC4=C2CCCC4=O)C(=O)CCC3)cc1; 370

Below: the item to evaluate.
Input line: Dear colleague, I am looking for the recorded absorption maximum of the following compound: COc1ccc2c(c1)SCC1=C(c3ccccc3)C3=Nc4c(-c5ccccc5)c5c(n4[B-](F)(F)[N+]3=C12)-c1ccc(OC)cc1SC5
Output line: 706

###

- protocol-details: solvent given as SMILES
- condition-description: in C1CCCCC1
Consider the following molecules and their measured absorption maximum readings.
Give the value in nm but do not write nm after it.

COc1ccc(C2=C(c3ccc(OC)cc3)C(C)(C)c3cc(-c4ccccc4)ccc32)cc1; 305
C=Cc1ccc(OC)c(OC)c1; 309
c1ccc(N2c3ccc4ccccc4c3-c3c4ccccc4nc[n+]3[B-]2(c2ccccc2)c2ccccc2)cc1; 539

Below: the item to evaluate.
Input line: Dear colleague, I am looking for the recorded absorption maximum of the following molecule: O=P1(c2ccccc2)C(c2cc(C(F)(F)F)cc(C(F)(F)F)c2)=Cc2c3ccc4cccc5ccc(c6cc(-c7ccc(N(c8ccccc8)c8ccccc8)cc7)n1c26)c3c45 (centres undefined)
Output line: 434

###

- protocol-details: solvent given as SMILES
- condition-description: in ClC(Cl)Cl
measured-property: absorption maximum (nm)
Give the value in nm but do not write nm after it.

Take a look at these entries with their results.
CCCCCCCCN1C(=O)c2ccc3c4c(-c5ccc(N(c6ccccc6)c6ccccc6)cc5)cc5c6c(cc(-c7ccc(N(c8ccccc8)c8ccccc8)cc7)c(c7ccc(c2c37)C1=O)c64)C(=O)N(CCCCCCCC)C5=O; 606
CCCCCCCCCCCCCCCCN(CCCCCCCCCCCCCCCC)c1ccc(/C=C/c2cc[n+](Cc3cc(C[n+]4ccc(/C=C/c5ccc(N(CCCCCCCCCCCCCCCC)CCCCCCCCCCCCCCCC)cc5)cc4)cc(C[n+]4ccc(/C=C/c5ccc(N(CCCCCCCCCCCCCCCC)CCCCCCCCCCCCCCCC)cc5)cc4)c3)cc2)cc1; 514
c1ccc(-n2c(-c3ccc(-c4ccc5c(c4)C4(c6ccccc6-c6ccccc64)c4cc(-c6ccc(-c7nc8ccccc8n7-c7ccccc7)cc6)c6ccccc6c4-5)cc3)nc3ccccc32)cc1; 359
CCCCCCCCCCCCc1sc(CCCCCC)c2c3cc(CCCCCC)sc3c3sc(CCCCCC)cc3c12; 373

Below: the item to evaluate.
Input line: Dear colleague, I am looking for the recorded absorption maximum of the following compound: CCCCCCCCC1(CCCCCCCC)c2cc3c(cc2-c2sc(-c4ccc(/C=C5\SC(N6CCCCC6)=NC5=O)c5nsnc45)cc21)C(CCCCCCCC)(CCCCCCCC)c1cc(-c2ccc(/C=C4\SC(N5CCCCC5)=NC4=O)c4nsnc24)sc1-3
Output line: 606
